System: MS2 coat protein
test: apparent KD of MS2 coat protein; designed switch direction (-1 OFF switch, 1 ON switch): 1; higher = weaker reporter binding
study conditions: Eterna round: R95; input ligand: none
Where apparent KD of MS2 coat protein equals or exceeds 50 nM, the correct label is yes (1); where it does not, the label is no (0).

chain_sequence="UCUUGGUUUUUGCUCGUUUUUUGUGUUGAACAUGAGGAUCACCCAUGUAUUGUACGGUCCGGUUUGGUAGUGGUCCG [JMF 16] (puzzle: Sensor for hsa-mir-208a)" assigned_class="yes (1)"
chain_sequence="AGGUGGUGUGGAAAGGAUAUACGGUUGAGGACAUGAGGAUCACCCAUGUGGUAGAGGACGUAAGGGUAGAAGGUUCGGGAUUGGU [JR_SS@_Sub022] (puzzle: Same State 2)" assigned_class="no (0)"
chain_sequence="AGUCCAGCCUGAGCUGGACAAAGGCAUGUACAUGAGGAUCACCCAUGUCAUGUACAAGCUUUUUGCUCGUCUUAAUA [Zipper 49 - 1] (puzzle: Sensor for hsa-mir-208a)" assigned_class="yes (1)"
chain_sequence="UACAAUCUAUCUGAGGAUAUCAUGAAUUACACAUGAGGAUCACCCAUGUGCAGGAAAACUGCAUAUGAGAAGGCAGAUAGAUUGU [salish99_ss2_r3_065] (puzzle: Same State 2)" assigned_class="yes (1)"
chain_sequence="GUAAUACAUGAGGAUCACCCAUGUCAAUGUAGUCGAGGAUAUGGGUAGCUAUGAGGCGUUCUAGAAGGCGACGAGC [Same State 1 - Mod of Vinnie Teenbexe v.3] (puzzle: Same State 1)" assigned_class="yes (1)"

---

Tested on: K4 kissing-loop RNA reporter;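 further: bound reporter read as fluorescence of individual clusters on recovered sequencing chips by microscopy, with normalized cluster intensities fitted with a binding model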
test: apparent KD of K4 kissing-loop reporter; higher = weaker reporter binding
study conditions: Eterna round: R107; input ligand: arginine 13.2 mM
Listing: apparent KD of K4 kissing-loop reporter of selected sequences
result type: apparent KD of K4 kissing-loop reporter (nM)

chain_sequence="UAGUGAUGCUAUGUUAGGUUUUUUAGGGAAGGAGCGCCAAAGAAGGCAGGUAGGUCGCCCUAUAUUCCCAGUGAUGUUGGGUAUU [Skye_Ex_AA]" reported_result=50.6
chain_sequence="GUUUUAUAAGAGGAUACCAGUACAAAUAAAGUACAUUAAUAGUAGAGUGAUGUUCUAAAGUACCCUUGGCAGCUUAGAUUAAGUU [ExTheophylB.E]" reported_result=236
chain_sequence="AUUUUAUUAACUGAUACCAGACUUAAUGAAUUGUAAAUUACUAGUGAUGUUAGUGAUUCUGUCCCUUGGCAGCAGUAUUUAUUAA [JR_ExcTheophyB_Sub012]" reported_result=146

---

Tested on: MS2 coat protein
test: apparent KD of MS2 coat protein; higher = weaker reporter binding
study conditions: Eterna round: R107; input ligand: theophylline 2 mM
Where apparent KD of MS2 coat protein equals or exceeds 200 nM, the correct label is met; where it does not, the label is not met.

chain_sequence="UGACAUUGCUCAGAUACCAGACGUGAGCAUCAGCCAUGUGCCAACAAGUACAAAAUAAAUGUCCCUUGGCAGCUGAGCAAUGUCU [TheoBX 22 #MS2Left #AlternativeMS2 #Theo22]" assigned_class="not met"
chain_sequence="UGGGUAGCAUAGAUUGAUAGCUACACUGAAGGAGCGAGGAUAACCUCAGGUAGGUCGCAGACAUGAGGAUCACCCAUGUAGAUGG [Same State Arginine A GF17]" assigned_class=met
chain_sequence="GAACAUAAGGAUAGUAUAAUGACUACAGAAGGAGCGUCAGGAAGGACAGGUAGGUCGCUGGAAGACAUGAGGAUCACCCAUGUUU [Arg A SS t2]" assigned_class="not met"
chain_sequence="AGAUGAGUCACGGCCGCCACUCUUCACAGGUUCACCCUUGGUUAACAUGAGGAUCACCCAUGUGGGAGGACCGGGUGAUGAGCAU [XTryp B #5]" assigned_class="not met"
chain_sequence="UUACAUGAGGAUCACCCAUGUCAUACAGAAGGAGCGUCACAUAAGACAGGUAGGUCGCUGUUAUAUCAUACUAUUAUAUCCUCUA [JR_Nu_ExcArginiA_Sub028]" assigned_class="not met"
chain_sequence="UUUUUCGCGGGUGAUACCAGCAAAGUUGUACUGGUCUGGUACAUGAGGAUCACCCAUGUUUGCCCUUGGCAGCGCUCGGGAGAAG [#22 Exclusion-TheophyllineB]" assigned_class="not met"
